System: SNB-75
Test: NCI tumour cell line growth inhibition, 48 h
Calls of active or inactive are those of the source. Rule as the data show it: active = GI50 up to about 1.1 µM and inactive = higher.
Classes to choose from: active, inactive

Use the examples below as a reference point.
| compound | category |
| --- | --- |
| COC(=O)C(=O)C(C(=O)OC)C(=O)C(=O)Nc1cc(Cl)c(C)cc1S(=O)(=O)O (stereo not given) | inactive |
| O=C1O/C(=C\c2ccccc2)N(c2ccccc2)C1=O | inactive |
| COC(=O)C1=CC2CCCC1(O)C(C(C)=O)C2 (stereo not given) | inactive |
| O=C1/C(=C/Cc2ccco2)N=C(c2ccccc2)N1c1nc2ccc(Sc3ccccc3)cc2[nH]1 | inactive |
| O=C(Cc1ccccc1F)NC1=C(Cl)C(=O)c2ccccc2C1=O | active |

Please state the recorded outcome for this compound: C#CCN(N=O)C(=O)NC(CCCNC(=O)OCc1ccccc1)C(=O)OCc1ccccc1 (stereo not given)
inactive

Please state the recorded outcome for this compound: "C[C@]12C[C@H](O)[C@H]3[C@@H](CCC4=CC(=O)CC[C@@]43C)[C@@H]1CC[C@@H]2c1csc(-c2ccccc2)n1"
inactive

Please state the recorded outcome for this compound: COc1ccc(C2c3cc4c(cc3C(O)C3CCC(=O)N23)OCO4)cc1 (stereo not given)
inactive

Please state the recorded outcome for this compound: CC(=O)OCC(OC(C)=O)C(OC(C)=O)C(OC(C)=O)C(C=NN(C(C)=O)S(=O)(=O)c1ccc(/C=C2\NC(=O)NC2=O)cc1)OC(C)=O (stereo not given)
inactive

Please state the recorded outcome for this compound: "CCc1cccc(C)c1NS(=O)(=O)c1ccccc1"
inactive

Please state the recorded outcome for this compound: "CCN1/C(=C/c2ccc3ccccc3[n+]2CC)C=Cc2ccccc21"
active

Please state the recorded outcome for this compound: "CN(C)S(=O)(=O)Nc1ccccn1"
inactive

Please state the recorded outcome for this compound: "COc1ccc(-c2c(C#N)c(N)nc3c2CCS(=O)(=O)c2ccccc2-3)cc1"
inactive

Please state the recorded outcome for this compound: "CCN1C(=O)/C(=C\c2coc3ccccc3c2=O)SC1=S"
inactive

----------
System: UACC-257
Assay: NCI tumour cell line growth inhibition, 48 h
Calls of active or inactive are those of the source. No stated cut-off is given here; in the data, active = GI50 up to about 1.1 µM and inactive = higher.
result.type: GI50

| compound | endpoint.result |
| --- | --- |
| COc1cc2c(/C=C3/C(=O)Nc4ccc(Cl)cc43)c(Cl)[nH]c2cc1C | 0.553 µM (active) |
| CCOC(=O)CCC(C(=O)OCC)n1nc2ccc(Nc3c(C)[n+]([O-])c4cc(F)c(OCC)cc4[n+]3[O-])cc2n1 (stereo not drawn) | > 100 µM (inactive) |
| Cc1oc2c(cc(O)c3cc(O)ccc32)c2cccc1-2 | > 100 µM (inactive) |
| O=C(O)c1ccccc1Cc1ccco1 | > 100 µM (inactive) |
| CCOC(=O)c1cccc(/N=N/Nc2cccc(C(=O)OCC)c2)c1 | 56.9 µM (inactive) |
| CCOC(=O)C(Cc1cn(S(=O)(=O)c2ccccc2)c2ccccc12)(NC(C)=O)C(=O)OCC | 24.5 µM (inactive) |

Name the recorded GI50 for CCCCCCCCCCCC/C=C\CC[C@@H](O)[C@H](O)CC[C@H](O)[C@@H]1CC[C@@H](CCCCCCCC2=C[C@H](C)OC2=O)O1 [GIGANTRIONENIN] .
0.0546 µM (active)

Name the recorded GI50 for "Br[C@@H]1[C@H]2c3nc4ccccc4nc3[C@@H]1C[C@H]2Br" .
83.6 µM (inactive)

Name the recorded GI50 for NC(=O)CCSC(CC(=O)c1ccc(Cl)cc1)c1ccc(Cl)cc1 (stereo not drawn) .
27.7 µM (inactive)

Name the recorded GI50 for COC(=O)C1CN=CN1CCc1ccccc1 (stereo not drawn) .
> 100 µM (inactive)

Name the recorded GI50 for "N#Cc1sc2nc3ccccc3n2c1N" .
> 100 µM (inactive)

Name the recorded GI50 for "Cc1cc(NS(=O)(=O)c2ccc(Nc3c4ccccc4nc4c(C(=O)N5CCN(CCO)CC5)cccc34)cc2)no1" .
> 100 µM (inactive)

Name the recorded GI50 for N=C(N)Nc1ccc(CC(N)NCC(=O)O)cc1 (stereo not drawn) .
> 25 µM (inactive)

Name the recorded GI50 for CC1(C)C2C/C(=C\c3ccccc3)C(=O)C1C2 (stereo not drawn) .
58.1 µM (inactive)

Name the recorded GI50 for CC12CCC(=O)N1c1cncnc1N2 (stereo not drawn) .
> 10 µM (inactive)

Name the recorded GI50 for CC1C2(C)OC(=N)C(C#N)(C(C)O2)C1(C#N)C#N (stereo not drawn) .
20.2 µM (inactive)

Name the recorded GI50 for C=C(C)CC(C(=O)O)c1ccc(C)cc1 (stereo not drawn) .
> 100 µM (inactive)

Name the recorded GI50 for COC1CC2C=CC3C4OC2(/C(C)=C/C(C)C(C(C)O)OC1=O)C3C(O)C(C)C4OC(=O)c1ccc[nH]1 (stereo not drawn) .
57.8 µM (inactive)

Name the recorded GI50 for "CN(CCSCCN(C)C(=O)OC(C)(C)C)C(=O)OC(C)(C)C" .
> 100 µM (inactive)

Name the recorded GI50 for COc1cc2ccc(=O)oc2cc1O [SCOPOLETIN] .
71.9 µM (inactive)

Name the recorded GI50 for O=C(NCCCCCCNC(=O)n1cc(F)c(=O)[nH]c1=O)NCCCOCCOCCCNC(=O)C(O)C(O)C(O)C(O)CO (stereo not drawn) .
> 2.5 µM (inactive)

Name the recorded GI50 for "COc1cc(Nc2nc3cc(C(F)(F)F)ccc3nc2-c2ccccc2)cc(OC)c1OC" .
73.6 µM (inactive)

Name the recorded GI50 for "[N-]=[N+]=CC(=O)CCC(=O)N(c1ccccc1)c1ccccc1" .
> 10 µM (inactive)

Name the recorded GI50 for "CC(=O)NCCc1c[nH]c2ccc(Cl)cc12" .
> 100 µM (inactive)

Name the recorded GI50 for "COc1cc(CNC(=O)[C@H](Cc2ccc(O)cn2)NC(C)=O)cc(OC)c1" .
65.6 µM (inactive)

Name the recorded GI50 for CC(=O)/N=S(/NC(=O)c1ccc(C)cc1)C(Cl)(Cl)Cl (stereo not drawn) .
44 µM (inactive)

Name the recorded GI50 for "C/C(=C\c1ccccc1)C(=O)NCc1ccc(C(=O)NCCc2ccccc2)cc1" .
> 100 µM (inactive)

Name the recorded GI50 for "CCCCOP(=O)(OCCCC)/C(C#N)=C/c1ccco1" .
40.1 µM (inactive)

Name the recorded GI50 for O=C1c2c(Br)sc(Br)c2C(NC(=O)C(F)(F)F)C1O (stereo not drawn) .
19.3 µM (inactive)

Name the recorded GI50 for C=C1C(C(=O)O)C1C(=O)O (stereo not drawn) .
> 100 µM (inactive)

Name the recorded GI50 for "CCCn1c(SCCSc2c3ccccc3c(-c3nc(F)nc(F)n3)n2CCC)c2ccccc2c1-c1nc(F)nc(F)n1" .
> 100 µM (inactive)

Name the recorded GI50 for "c1ccc(CSC(SCc2ccccc2)c2ccc3c(c2)OCO3)cc1" .
> 10 µM (inactive)
